system: LXRb:RXRa (NR concentration 270 nM, RXRa partner concentration 90 nM); assay: PBM binding z-score (relative to random genomic background probes); higher = stronger binding; sequences stand for … in GC…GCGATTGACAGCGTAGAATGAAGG
Class Criterion met: PBM binding z-score at least 2. Class Criterion not met: PBM binding z-score below 2.

// known answers, use as guide
- seq: "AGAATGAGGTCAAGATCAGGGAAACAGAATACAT"
  target-desc: "LXRb:RXRa (NR concentration 270 nM, RXRa partner concentration 90 nM)"
  class-assignment: "Criterion met"
- seq: "CCAGACAGGTGAGAAGGTAACTCAGCCTCGATTA"
  target-desc: "LXRb:RXRa (NR concentration 270 nM, RXRa partner concentration 90 nM)"
  class-assignment: "Criterion not met"

[ask] Dear colleague, could you confirm whether `CCTTACGGGTCACGAGGTCATAGCACGACGAGCG` has PBM binding z-score at or above 2?
[reply] Criterion met

The values you see were collected from the supplement of paper PMC6555819.
